Data provenance is paper PMC9545781.

assayMethodText: Open-label clinical pharmacokinetic study of oral XBD173 and etifoxine in healthy volunteers (plasma LC-MSMS)
Type: in vivo, human
condition: human, plasma, po, 90 mg, 90 mg XBD173 single oral dose; participant 1
readoutLabel: Tmax (h)

In [3]: df
Out[3]:
                                smilesentry  readoutlabel  valueobserved
0  CCN(Cc1ccccc1)C(=O)Cn1c(=O)n(C)c2cnc(-c3ccccc3)nc21          Tmax              2

====

assayMethodText: Open-label clinical pharmacokinetic study of oral XBD173 and etifoxine in healthy volunteers (plasma LC-MSMS)
Format: in vivo, human
condition: human, plasma, po, 50 mg, 50mg etifoxine single oral dose; 60 mins; participant 2
readoutLabel: concentration at 60 min (ng/mL)

In [3]: df
Out[3]:
                                   molecule  valueobserved
0  CCNC1=Nc2ccc(Cl)cc2C(C)(c2ccccc2)O1 (stereo not shown)           15.9

====

assayMethodText: Open-label clinical pharmacokinetic study of oral XBD173 and etifoxine in healthy volunteers (plasma LC-MSMS)
Assay type: in vivo, human
condition: human, plasma, po, 90 mg, 90mg XBD173 single oral dose; 60 mins; participant 2
readoutLabel: concentration at 60 min (ng/mL)

>>> print(df.to_string())
                                   molecule             readoutlabel  valueobserved
0  CCN(Cc1ccccc1)C(=O)Cn1c(=O)n(C)c2cnc(-c3ccccc3)nc21 [XBD173]  concentration at 60 min           15.4

====

assayMethodText: Open-label clinical pharmacokinetic study of oral XBD173 and etifoxine in healthy volunteers (plasma LC-MSMS)
Format: in vivo, human
condition: human, plasma, po, 50 mg, 50 mg etifoxine single oral dose; participant 2
readoutLabel: Tmax

>>> df
                                   molecule  valueobserved
0  CCNC1=Nc2ccc(Cl)cc2C(C)(c2ccccc2)O1 (stereo not shown)            2 h
